viability, % of control listing for selected compounds.
- Protocol details: Viability qHTS for spleen associated tyrosine kinase inhibitor (SYKi) drug resistant MV4-11 cells (AID 1963824); note: nearly all actives have a fitted effect of over 35% in size
- Condition context: SYKi-resistant MV4-11 viability, CellTiter-Glo, 72 h; series mostly up to 45 µM
Records with an inconclusive call do not appear. The source made the active and inactive calls. Calls come from the whole dose curve; as a rule, active = well fitted cell-killing curve with a large enough effect; inconclusive = small, poorly fitted or top-dose-only effect, or effect the other way; inactive = no such curve, though single readings can be large or run the other way.

C[C@@H]1O[C@@H](O[C@H]2[C@H](O[C@H]3[C@H](O[C@H]4CC[C@@]5(CO)C(CC[C@]6(C)C5CC=C5C7CC(C)(C)C[C@@H](O)[C@]7(C)CC[C@]56C)C4(C)C)O[C@H](C(=O)O)[C@@H](O)[C@@H]3O)OC[C@@H](O)[C@@H]2O)[C@H](O)[C@H](O)[C@H]1O (some centres undefined) ... 70% [at 9.25 µM] (inactive)

query: viability, % of control lookup needed for C[C@@H]1O[C@@H](O[C@H]2[C@H](O[C@H]3[C@H](O[C@H]4CC[C@@]5(C)C(CC[C@]6(C)C5CC=C5[C@@H]7CC(C)(C)CC[C@]7(C(=O)O[C@@H]7O[C@H](CO)[C@@H](O[C@@H]8O[C@@H](C)[C@H](O)[C@@H](O)[C@H]8O)[C@H](O)[C@H]7O)CC[C@]56C)C4(C)C)OC[C@H](O)[C@@H]3O)O[C@H](CO)[C@@H](O)[C@@H]2O)[C@H](O)[C@H](O)[C@H]1O (some centres undefined) , thanks.
result: 2.33% [at 9.25 µM] (inactive)

query: And what about the compound CC1(C)CC[C@]2(C(=O)O[C@@H]3O[C@H](CO)[C@@H](O)[C@H](O)[C@H]3O)CC[C@]3(C)C(=CCC4[C@@]5(C)C[C@H](O)[C@H](O[C@@H]6OC[C@@H](O)[C@H](O)[C@H]6O)[C@@](C)(CO)C5CC[C@]43C)C2C1 (some centres undefined) ?
result: 109% [at 9.25 µM] (inactive)

query: Next entry: CC1(C)CCC2(C(=O)OC3OC(CO)C(O)C(O)C3O)CCC3(C)C(=CCC4C5(C)CCC(OC6OC(C(=O)O)C(OC7OC(CO)C(O)C(O)C7O)C(OC7OC(CO)C(O)C(O)C7O)C6O)C(C)(C)C5CCC43C)C2C1 (centres undefined)
result: 109% [at 9.25 µM] (inactive)

----------
- Protocol details: Quantitative highthroughput screen to assess conditional lethalithy of P12 Ichikawa cells grown in Human Plasma-Like Medium with dialyzed fetal bovine serum (HPLM+ds) (AID 1963879); note: nearly all actives have a fitted effect of over 35% in size; note: potency is the fitted concentration of half-maximal effect
- Condition context: ATP luminescence, 48 h; viability; series mostly up to 45.8 µM
Inconclusive results are not listed. The source made the active and inactive calls. The call rests on the fitted dose curve; in most records, active means well fitted cell-killing curve with a large enough effect; inconclusive means small, poorly fitted or top-dose-only effect; inactive means flat fitted curve, though single readings scatter.
Experimental endpoint: Potency

Past entries and their recorded results:
CN(C)c1ccc(C(=C2C=CC(=[N+](C)C)C=C2)c2ccc(N(C)C)cc2)cc1 ... 0.264 µM (active)
CC=CC(=O)N(CC)c1ccccc1C ... inactive
C[C@@H]1CC=CC=CC=CC=C[C@@H](O[C@@H]2O[C@H](C)[C@@H](O)[C@H](N)[C@H]2O)C[C@@H]2O[C@](O)(C[C@@H](O)C[C@@H]3O[C@@H]3C=CC(=O)O1)C[C@H](O)[C@@H]2C(=O)O ... inactive
CS(=O)(=O)N1CCc2c(-c3cnc(N)nc3)nc(N3CCOCC3)nc21 ... inactive
O=C(c1ccc(C(=O)N2CCC(N3CCCC3)CC2)c(Nc2ccccc2)c1)N1CCC(N2CCCC2)CC1 ... inactive

query: Returns the measured Potency for the input compound. Input: CCCNCC(O)COc1ccccc1C(=O)CCc1ccccc1 (configuration not stated)
result: inactive
